Values compiled from patent US6242199A.

biological target: growth hormone secretagogue receptor (GHSR), porcine anterior pituitary membranes (Sus scrofa); construct: Frozen anterior pituitary glands from male swine (50-80 Kg); from tissue; host or cells: anterior pituitary glands of male swine (50-80 kg), crude membranes; test: [35S]-Compound A radioreceptor binding, porcine anterior pituitary membranes; details: GTP analogs / nucleotides; FIG. 26; read-out: inhibition of [35S]-Compound A binding, IC50
Sequence (Q95254 whole entry): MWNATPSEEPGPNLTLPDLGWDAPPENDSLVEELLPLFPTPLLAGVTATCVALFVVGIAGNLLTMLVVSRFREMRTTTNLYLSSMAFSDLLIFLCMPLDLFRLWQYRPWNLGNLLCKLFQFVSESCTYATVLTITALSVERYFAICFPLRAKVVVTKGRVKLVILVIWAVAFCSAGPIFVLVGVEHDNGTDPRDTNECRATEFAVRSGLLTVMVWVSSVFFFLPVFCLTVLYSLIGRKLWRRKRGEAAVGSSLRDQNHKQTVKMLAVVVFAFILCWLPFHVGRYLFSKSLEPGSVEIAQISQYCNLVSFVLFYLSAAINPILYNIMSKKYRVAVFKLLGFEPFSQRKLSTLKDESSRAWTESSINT
pIC50: −log10 of the molar value.

{"STRUCTURE_SMILES_STRING": "Nc1nc2c(ncn2[C@@H]2O[C@H](COP(=O)(O)OP(=O)(O)NP(=O)(O)O)[C@@H](O)[C@H]2O)c(=O)[nH]1", "pIC50": 6.96}
